target_under_test: T1, human PD-1 expressed on cells (human, UniProt Q15116 25-288)
T1 construct: whole, on cells
experiment_summary: flow cytometry, hPD-1-293 cells
Exercise: for every item that follows, state its recorded MFI, 5 nM.
Report the value in MFI with no unit label.

**Query** Endpoint output: MFI, 5 nM of 38A6 (antibody, V domains shown, also called 780_46) VH: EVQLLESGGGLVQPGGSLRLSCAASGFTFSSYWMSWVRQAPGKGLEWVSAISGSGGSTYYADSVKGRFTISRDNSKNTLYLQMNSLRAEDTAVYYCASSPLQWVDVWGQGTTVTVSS VL: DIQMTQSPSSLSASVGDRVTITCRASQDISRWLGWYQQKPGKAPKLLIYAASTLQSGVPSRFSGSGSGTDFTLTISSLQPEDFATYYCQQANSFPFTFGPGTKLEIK . Value?
**Result** 227

**Query** Query: MFI, 5 nM; subject: 33C4 (antibody, V domains shown, also called 780_39) VH: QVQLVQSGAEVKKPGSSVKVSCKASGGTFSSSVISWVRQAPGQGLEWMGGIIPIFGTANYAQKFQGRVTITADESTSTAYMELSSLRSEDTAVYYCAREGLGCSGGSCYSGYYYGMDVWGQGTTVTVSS VL: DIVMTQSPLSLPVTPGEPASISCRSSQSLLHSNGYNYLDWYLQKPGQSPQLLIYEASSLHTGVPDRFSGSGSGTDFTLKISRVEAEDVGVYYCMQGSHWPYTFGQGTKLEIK
**Result** 179

**Query** For the binder 38B2 (antibody, V domains shown, 24H9 derivative, IgG; also called 780_54; hPD1 Ab (38B2)) VH: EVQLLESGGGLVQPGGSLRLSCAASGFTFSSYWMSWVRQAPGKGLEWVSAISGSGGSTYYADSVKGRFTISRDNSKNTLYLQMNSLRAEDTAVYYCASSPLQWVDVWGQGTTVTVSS VL: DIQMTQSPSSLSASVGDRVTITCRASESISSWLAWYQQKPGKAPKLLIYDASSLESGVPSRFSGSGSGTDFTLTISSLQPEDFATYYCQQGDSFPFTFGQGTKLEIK , what MFI, 5 nM is on record?
**Result** 297

**Query** I have this binder here, 31B1 (antibody, V domains shown, also called 780_38; 33B1 and 31B2 (apparent misprints)) VH: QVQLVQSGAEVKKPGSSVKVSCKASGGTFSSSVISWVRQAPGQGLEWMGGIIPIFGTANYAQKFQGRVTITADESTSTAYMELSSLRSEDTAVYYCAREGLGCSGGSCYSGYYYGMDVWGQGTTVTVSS VL: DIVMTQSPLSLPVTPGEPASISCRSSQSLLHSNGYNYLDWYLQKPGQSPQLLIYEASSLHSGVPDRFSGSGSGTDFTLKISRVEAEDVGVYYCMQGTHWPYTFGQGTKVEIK , and I need its recorded MFI, 5 nM.
**Result** 186

From: patent US20230416363A1
